Target: T1, human B7-H4 on the cell surface (human, UniProt Q7Z7D3 25-282)
T1 sequence: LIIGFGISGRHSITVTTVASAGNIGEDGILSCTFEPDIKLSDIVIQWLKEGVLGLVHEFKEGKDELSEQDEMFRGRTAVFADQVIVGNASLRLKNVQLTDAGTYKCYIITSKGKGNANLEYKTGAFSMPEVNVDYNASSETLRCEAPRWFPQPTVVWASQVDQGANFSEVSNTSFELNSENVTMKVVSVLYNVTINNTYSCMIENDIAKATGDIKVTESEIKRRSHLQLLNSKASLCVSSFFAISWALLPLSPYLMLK
Test: cell-based or functional assay
quantity-name: Donor 2 Max IFNγ (pg/mL)
Please reply with the bare figure in pg/mL and do not write the unit itself.

Given the binder B7-H4 antibody 20516 (antibody, human IgG1, kappa, V domains shown, human IgG1/kappa) VH: QVQLQESGPGLVKPSETLSLTCTVSGGSIISYYWGWIRQPPGKGLEWIGYIYSSGSTSYNPSLKSRVTISVDTSKNQFSLKLSSVTAADTAVYYCARGSGLYAAPDYGLDVWGQGTTVTVSS VL: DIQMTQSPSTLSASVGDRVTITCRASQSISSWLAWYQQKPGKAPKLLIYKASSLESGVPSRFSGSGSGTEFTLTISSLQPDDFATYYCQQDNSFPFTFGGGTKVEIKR , what is its reported Donor 2 Max IFNγ?
441

Hello, the source for this data is patent US20240043542A1, in case you need it.
